tested on: MCF7; test: Induction of apoptosis in human MCF7 cells expressing VDR siRNA assessed as live cells at 1 uM after 24 hrs by Annexin-V-FITC/propidium iodide staining based flow cytometry (reference value: 98.35%); type: functional
// reported Activity per item
quantity_measured: Activity (%)

molecule	quantitative_result
CCn1c(C(=O)N[C@@H](C)CO)ccc1C(CC)(CC)c1ccc(OCC(O)C(C)(C)C)c(C)c1 (some centres not stated)	96.87
CCN(CC)CCNC(=O)c1cc(C(CC)(CC)c2ccc(OCS(=O)(=O)c3ccccc3)c(C)c2)cn1CC	97.48
CCN(CC)CCNC(=O)c1ccc(C(CC)(CC)c2ccc(OCSc3ccccc3)c(C)c2)n1CC	97.03
C=C1/C(=C\C=C2/CCC[C@]3(C)[C@@H]([C@H](C)CCCC(C)(C)O)CC[C@@H]23)C[C@@H](O)C[C@@H]1O	97.25
CCN(CC)CCNC(=O)c1cc(C(CC)(CC)c2ccc(OCSC)c(C)c2)cn1CC	96.68
CCN(CC)CCNC(=O)c1cc(C(CC)(CC)c2ccc(OCSc3ccccc3)c(C)c2)cn1CC	97.14
CCN(CC)CCNC(=O)c1ccc(C(CC)(CC)c2ccc(OCSC)c(C)c2)n1CC	97.35

* * *

test: Clearance in Sprague-Dawley rat at 20 mg/kg, ip by HPLC method; format: ADME, organism-based; conditions: in vivo

compound	CL/F / mL/min
CCN(CC)CCNC(=O)c1cc(C(CC)(CC)c2ccc(OCS(=O)(=O)c3ccccc3)c(C)c2)cn1CC	27.7
CCn1c(C(=O)N[C@@H](C)CO)ccc1C(CC)(CC)c1ccc(OCC(O)C(C)(C)C)c(C)c1 (stereo partly drawn)	55.2
CCN(CC)CCNC(=O)c1ccc(C(CC)(CC)c2ccc(OCSC)c(C)c2)n1CC	16.5

* * *

experiment: AUC in Sprague-Dawley rat at 5 mg/kg, iv by HPLC method; assay type: ADME, organism-based; details: in vivo
// reported AUC per item

compound	AUC (ng·h/mL)
CCn1c(C(=O)N[C@@H](C)CO)ccc1C(CC)(CC)c1ccc(OCC(O)C(C)(C)C)c(C)c1 (stereo partly drawn)	4650
CCN(CC)CCNC(=O)c1cc(C(CC)(CC)c2ccc(OCS(=O)(=O)c3ccccc3)c(C)c2)cn1CC	7470
CCN(CC)CCNC(=O)c1ccc(C(CC)(CC)c2ccc(OCSC)c(C)c2)n1CC	11800

* * *

test: Mean residence time in Sprague-Dawley rat at 20 mg/kg, ip by HPLC method; assay type: ADME, organism-based; conditions: in vivo
quantity_measured: MRT (h)

molecule	unit_abbreviation	quantitative_result
CCN(CC)CCNC(=O)c1ccc(C(CC)(CC)c2ccc(OCSC)c(C)c2)n1CC	h	15.7
CCN(CC)CCNC(=O)c1cc(C(CC)(CC)c2ccc(OCS(=O)(=O)c3ccccc3)c(C)c2)cn1CC	h	11.9
CCn1c(C(=O)N[C@@H](C)CO)ccc1C(CC)(CC)c1ccc(OCC(O)C(C)(C)C)c(C)c1 (stereo partly drawn)	h	5.5

* * *

assay: Half life in Sprague-Dawley rat at 20 mg/kg, ip by HPLC method; format: ADME, organism-based; settings: in vivo
quantity_measured: half-life (h)

compound	unit_abbreviation	quantitative_result
CCN(CC)CCNC(=O)c1ccc(C(CC)(CC)c2ccc(OCSC)c(C)c2)n1CC	h	10.8
CCN(CC)CCNC(=O)c1cc(C(CC)(CC)c2ccc(OCS(=O)(=O)c3ccccc3)c(C)c2)cn1CC	h	7.65
CCn1c(C(=O)N[C@@H](C)CO)ccc1C(CC)(CC)c1ccc(OCC(O)C(C)(C)C)c(C)c1 (stereo partly drawn)	h	3.47

* * *

test: Solubility of the compound in water at pH 7.4 by HPLC method; type: physicochemical
The threshold is inclusive: solubility of exactly 30 µg/mL counts as 1; values below receive 0.

compound	classification
CCN(CC)CCNC(=O)c1cc(C(CC)(CC)c2ccc(OCSC)c(C)c2)cn1CC	1
CCn1c(C(=O)N[C@@H](C)CO)ccc1C(CC)(CC)c1ccc(OCS(=O)(=O)c2ccccc2)c(C)c1	1
CCN(CC)CCNC(=O)c1ccc(C(CC)(CC)c2ccc(OCSC)c(C)c2)n1CC	1
CCN(CC)CCNC(=O)c1ccc(C(CC)(CC)c2ccc(OCSc3ccccc3)c(C)c2)n1CC	0
CCn1c(C(=O)NCCN)ccc1C(CC)(CC)c1ccc(OCS(=O)(=O)c2ccccc2)c(C)c1	1
CCN(CC)CCNC(=O)c1cc(C(CC)(CC)c2ccc(OCSc3ccccc3)c(C)c2)cn1CC	0
CCN(CC)CCNC(=O)c1cc(C(CC)(CC)c2ccc(OCS(=O)(=O)c3ccccc3)c(C)c2)cn1CC	1
CCN(CC)CCNC(=O)c1ccc(C(CC)(CC)c2ccc(OCS(=O)(=O)c3ccccc3)c(C)c2)n1CC	1
CCn1c(C(=O)N[C@H](CO)C(C)C)ccc1C(CC)(CC)c1ccc(OCS(=O)(=O)c2ccccc2)c(C)c1	0
CCn1c(C(=O)N[C@@H](C)CO)ccc1C(CC)(CC)c1ccc(OCC(O)C(C)(C)C)c(C)c1 (stereo not given in full)	0

* * *

// reported IC50 per item
tested on: MCF7; assay: Antiproliferative activity against human MCF7 cells expressing VDR siRNA assessed as reduction in BrdU incorporation after 16 hrs by ELISA; type: functional, cell-based; conditions: MCF7, 16 h
quantity_measured: IC50

molecule	quantity_measured	result
CCN(CC)CCNC(=O)c1cc(C(CC)(CC)c2ccc(OCS(=O)(=O)c3ccccc3)c(C)c2)cn1CC	IC50	> 50 µM
CCn1c(C(=O)N[C@@H](C)CO)ccc1C(CC)(CC)c1ccc(OCC(O)C(C)(C)C)c(C)c1 (stereo partly drawn)	IC50	> 50 µM
CCN(CC)CCNC(=O)c1ccc(C(CC)(CC)c2ccc(OCSC)c(C)c2)n1CC	IC50	> 50 µM

* * *

experiment: Bioavailability in Sprague-Dawley rat at 20 mg/kg, ip by HPLC method; assay type: ADME, organism-based; conditions: in vivo
quantity_measured: bioavailability (%)

compound	quantitative_result
CCN(CC)CCNC(=O)c1ccc(C(CC)(CC)c2ccc(OCSC)c(C)c2)n1CC	43.2
CCN(CC)CCNC(=O)c1cc(C(CC)(CC)c2ccc(OCS(=O)(=O)c3ccccc3)c(C)c2)cn1CC	40.3
CCn1c(C(=O)N[C@@H](C)CO)ccc1C(CC)(CC)c1ccc(OCC(O)C(C)(C)C)c(C)c1 (stereo partly drawn)	32.5

* * *

// reported pEC50 per item
molecular target: Retinoic acid receptor RXR-alpha/Vitamin D3 receptor (Homo sapiens, UniProt P11473+P19793); test: Transactivation of recombinant human VDR/RXRalpha expressed in HEK293 cells after 24 hrs by Dual-luciferase reporter gene assay
Sequence (P11473 whole entry): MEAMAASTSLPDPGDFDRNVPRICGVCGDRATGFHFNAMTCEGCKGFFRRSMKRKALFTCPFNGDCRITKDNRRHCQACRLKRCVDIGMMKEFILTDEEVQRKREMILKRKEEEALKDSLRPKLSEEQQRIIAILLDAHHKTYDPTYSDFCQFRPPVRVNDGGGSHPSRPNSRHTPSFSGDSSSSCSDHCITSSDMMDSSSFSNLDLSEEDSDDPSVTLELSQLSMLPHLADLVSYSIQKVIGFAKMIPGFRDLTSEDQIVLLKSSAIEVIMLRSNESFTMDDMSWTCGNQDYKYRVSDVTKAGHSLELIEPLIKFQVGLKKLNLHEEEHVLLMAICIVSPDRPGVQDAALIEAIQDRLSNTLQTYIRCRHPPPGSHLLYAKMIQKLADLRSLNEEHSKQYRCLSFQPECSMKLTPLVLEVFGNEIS
Sequence (P19793 whole entry): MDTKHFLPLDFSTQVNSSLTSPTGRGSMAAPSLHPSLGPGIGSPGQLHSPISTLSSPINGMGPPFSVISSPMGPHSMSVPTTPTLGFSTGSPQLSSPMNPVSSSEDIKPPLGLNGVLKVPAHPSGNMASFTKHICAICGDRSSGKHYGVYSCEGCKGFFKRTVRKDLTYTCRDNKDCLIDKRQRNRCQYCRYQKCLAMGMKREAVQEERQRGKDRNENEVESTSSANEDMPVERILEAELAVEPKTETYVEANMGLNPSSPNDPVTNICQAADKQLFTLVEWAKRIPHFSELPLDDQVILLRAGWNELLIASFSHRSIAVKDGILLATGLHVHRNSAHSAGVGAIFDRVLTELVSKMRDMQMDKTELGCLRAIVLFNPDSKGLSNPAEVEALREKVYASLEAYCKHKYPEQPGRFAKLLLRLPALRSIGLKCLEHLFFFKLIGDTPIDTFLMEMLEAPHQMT
pEC50: −log10 of the molar value.

compound	pEC50
CCN(CC)CCNC(=O)c1ccc(C(CC)(CC)c2ccc(OCSC)c(C)c2)n1CC	8.19
CCN(CC)CCNC(=O)c1cc(C(CC)(CC)c2ccc(OCS(=O)(=O)c3ccccc3)c(C)c2)cn1CC	7.42
CCn1c(C(=O)N[C@@H](C)CO)ccc1C(CC)(CC)c1ccc(OCC(O)C(C)(C)C)c(C)c1 (stereo partly drawn)	8.17

* * *

// reported clearance per item
assay: Clearance in Sprague-Dawley rat at 5 mg/kg, iv by HPLC method; assay type: ADME, organism-based; conditions: in vivo

molecule	clearance [mL/min]
CCN(CC)CCNC(=O)c1ccc(C(CC)(CC)c2ccc(OCSC)c(C)c2)n1CC	7
CCn1c(C(=O)N[C@@H](C)CO)ccc1C(CC)(CC)c1ccc(OCC(O)C(C)(C)C)c(C)c1 (stereo partly drawn)	18
CCN(CC)CCNC(=O)c1cc(C(CC)(CC)c2ccc(OCS(=O)(=O)c3ccccc3)c(C)c2)cn1CC	11.2

* * *

tested on: MCF7; experiment: Induction of apoptosis in human MCF7 cells expressing VDR siRNA assessed as necrotic cells at 1 uM after 24 hrs by Annexin-V-FITC/propidium iodide staining based flow cytometry (reference value: 0.15%); type: functional
// reported Activity per item

compound	Activity (%)
CCN(CC)CCNC(=O)c1cc(C(CC)(CC)c2ccc(OCS(=O)(=O)c3ccccc3)c(C)c2)cn1CC	0.25
C=C1/C(=C\C=C2/CCC[C@]3(C)[C@@H]([C@H](C)CCCC(C)(C)O)CC[C@@H]23)C[C@@H](O)C[C@@H]1O	0.42
CCN(CC)CCNC(=O)c1ccc(C(CC)(CC)c2ccc(OCSC)c(C)c2)n1CC	0.51
CCN(CC)CCNC(=O)c1ccc(C(CC)(CC)c2ccc(OCSc3ccccc3)c(C)c2)n1CC	0.47
CCN(CC)CCNC(=O)c1cc(C(CC)(CC)c2ccc(OCSc3ccccc3)c(C)c2)cn1CC	0.37
CCn1c(C(=O)N[C@@H](C)CO)ccc1C(CC)(CC)c1ccc(OCC(O)C(C)(C)C)c(C)c1 (some centres not stated)	0.35
CCN(CC)CCNC(=O)c1cc(C(CC)(CC)c2ccc(OCSC)c(C)c2)cn1CC	0.5

// data source = ChEMBL document CHEMBL4270638
